target: Fructose-1,6-bisphosphatase 1 (Homo sapiens, UniProt P09467); assay: Inhibition of human liver fructose-1,6-bisphosphatase expressed in Escherichia coli BL21 (DE3) assessed as reduction of NADP+ to NADPH by phosphoglucose isomerase/glucose-6-phosphate dehydrogenase coupled assay; details: read-out: IC50
Sequence (P09467 whole entry): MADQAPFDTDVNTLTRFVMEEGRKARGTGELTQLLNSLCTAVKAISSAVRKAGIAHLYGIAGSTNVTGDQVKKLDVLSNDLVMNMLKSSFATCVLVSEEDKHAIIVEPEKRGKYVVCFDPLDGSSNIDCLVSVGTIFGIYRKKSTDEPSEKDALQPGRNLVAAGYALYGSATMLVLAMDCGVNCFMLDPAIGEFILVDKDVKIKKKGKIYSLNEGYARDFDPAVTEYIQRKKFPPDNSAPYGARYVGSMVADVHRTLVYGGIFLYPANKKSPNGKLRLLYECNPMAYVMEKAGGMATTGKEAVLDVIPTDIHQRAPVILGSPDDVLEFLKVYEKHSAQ
Measured property: IC50 (µM)

INSERT INTO results (compound, measured_property, measure_unit, reported) VALUES
  ('CC(=O)C1=C(O)C=C2Oc3c(C(C)=O)c(O)c(C)c(O)c3[C@@]2(C)C1=O [(+)-USNIC ACID]', 'IC50', 'µM', 371),
  ('Nc1ncnc2c1ncn2[C@@H]1O[C@H](COP(=O)(O)O)[C@@H](O)[C@H]1O [ADENOSINE PHOSPHATE]', 'IC50', 'µM', 9.8);
